# experiment_description: Half life in human liver microsomes incubated for 30 mins in presence of NADPH by LC-MS/MS analysis
# Format: ADME, Microsome
quantity: half-life (min)

INSERT INTO results (compound, quantity, unit_abbrev, value_modifier, recorded_number) VALUES
  ('COCCOc1cncc(C#Cc2cc(C(=O)Nc3ccc4c(c3)C(F)(F)CC4N3CCN(C)CC3)ccc2F)c1 (centres undefined)', 'half-life', 'min', '>', 93.2),
  ('CN1CCN(C2CC(F)(F)c3cc(NC(=O)c4cccc(C#Cc5cncc(N6CCC6)c5)c4)ccc32)CC1 (centres undefined)', 'half-life', 'min', '>', 93.2),
  ('CN1CCN(C2CC(F)(F)c3cc(NC(=O)c4ccc(F)c(C#Cc5cncc(N6CCC6)c5)c4)ccc32)CC1 (centres undefined)', 'half-life', 'min', '>', 93.2),
  ('CN1CCN(C2CC(F)(F)c3cc(NC(=O)c4cccc(C#Cc5cncc(N6CCOCC6)c5)c4)ccc32)CC1 (centres undefined)', 'half-life', 'min', '=', 45.7),
  ('COc1ccc2c(c1)[C@]13CCCC[C@@H]1[C@H](C2)N(C)CC3 [DEXTROMETHORPHAN]', 'half-life', 'min', '=', 22.3),
  ('CCOc1ccc(NC(C)=O)cc1 [PHENACETIN]', 'half-life', 'min', '=', 52.9),
  ('CN1CCN(C2CC(F)(F)c3cc(NC(=O)c4ccc(F)c(C#Cc5cncc(N6CCOCC6)c5)c4)ccc32)CC1 (centres undefined)', 'half-life', 'min', '>', 93.2),
  ('COc1cncc(C#Cc2cc(C(=O)Nc3ccc4c(c3)C(F)(F)CC4N3CCN(C)CC3)ccc2F)c1 (centres undefined)', 'half-life', 'min', '>', 93.2),
  ('COc1ccc2[nH]c([S+]([O-])Cc3ncc(C)c(OC)c3C)nc2c1 (centres undefined) [OMEPRAZOLE]', 'half-life', 'min', '=', 35.7);
